# test.target: phosphorylated VEGF-R2Δ50 (FLVK-P) (Homo sapiens, UniProt P35968, DEL940-989/E990V)
# Construct: VEGF-R2Δ50 contains residues 806-939 and 990-1171; made in house; host or cells: baculovirus/insect cells
# Sequence (P35968 with tags, fused parts or gaps DEL940-989/E990V limits assumed): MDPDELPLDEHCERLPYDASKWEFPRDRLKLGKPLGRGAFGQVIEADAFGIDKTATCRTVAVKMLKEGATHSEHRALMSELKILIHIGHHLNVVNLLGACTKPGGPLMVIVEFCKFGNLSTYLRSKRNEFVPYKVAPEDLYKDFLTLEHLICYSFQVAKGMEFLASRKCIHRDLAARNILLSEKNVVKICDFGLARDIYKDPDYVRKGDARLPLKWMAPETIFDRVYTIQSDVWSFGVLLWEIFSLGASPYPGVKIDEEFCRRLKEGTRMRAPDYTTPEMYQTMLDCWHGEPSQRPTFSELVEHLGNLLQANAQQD
# assay.notes: VEGF-R2 coupled spectrophotometric (FLVK-P) assay
# Assay type: biochemical
# experimental.conditions: Table 2; spectrophotometric assay
pKi: −log10 of the molar value.
measured.property: pKi

Some solved cases for reference:
molecule=COc1cc(Nc2nc(N)c(-c3nc(-c4cccc(O)c4)cs3)s2)cc(OC)c1OC readout_number=8.52
molecule=COc1cc(Nc2nc(N)c(-c3nc(-c4cc(O)ccc4Br)cs3)s2)cc(OC)c1OC readout_number=7.85

a. COc1cc(Nc2nc(N)c(-c3nc(-c4ccc(Cl)c(O)c4)cs3)s2)cc(OC)c1OC
b. COc1cc(O)cc(-c2csc(-c3sc(Nc4cc(OC)c(OC)c(OC)c4)nc3N)n2)c1
c. COc1cc(Nc2nc(N)c(C3=NC(c4ccc(O)cc4)CO3)s2)cc(OC)c1OC (stereo not shown)
Q. // sort entries: pKi, high to low Give your ranking as a list of the labels in the requested order.
A. b, a, c

I. COc1cc(Nc2nc(N)c(-c3nc(-c4ccccc4O)cs3)s2)cc(OC)c1OC
II. Nc1nc(Nc2ccc(S(N)(=O)=O)cc2)sc1-c1nc(C(=O)c2ccccc2)cs1
Q. Lab log: flag the item ( I or II ) with the smaller pKi figure. Respond using the label that marks the chosen record.
A. II

1. CCCNc1nc(N)c(-c2nc(-c3cccc(O)c3)cs2)s1
2. COc1cc(Nc2nc(N)c(-c3nc(-c4cccc(O)c4)no3)s2)cc(OC)c1OC
3. COc1cc(Nc2nc(N)c(-c3nc(-c4ccc(O)c(O)c4)cs3)s2)cc(OC)c1OC
Q. Task for the reader: rank each entry by its pKi, from the minimum upward. Give your ranking as a list of the labels in the requested order.
A. 1, 3, 2

a. CNc1nc(N)c(-c2nc(-c3cccc(O)c3)cs2)s1
b. COc1cc(Nc2nc(N)c(-c3nc(-c4ccc(O)cc4)cs3)s2)cc(OC)c1OC
c. COCOc1cccc(-c2noc(-c3sc(Nc4cc(OC)c(OC)c(OC)c4)nc3N)n2)c1
Q. Task for the reader: rank each entry by its pKi, from the minimum upward. Give your ranking as a list of the labels in the requested order.
A. c, a, b
(c: 6.70, a: 6.96, b: 7.55)

These data points were gathered from patent US6620828B2.
